# target_entity: JMJD3 (Homo sapiens, UniProt O15054)
# method_notes: In vitro enzyme inhibition assay for JMJD3 activity (TR-FRET)
# Type: biochemical
# experimental_parameters: Table 4; cell gives A/B enantiomer values
pIC50: −log10 of the molar value.
measure_name: pIC50

                           structure_smiles  reported_value
0  Cc1cc(OCC(F)(F)F)ccc1-c1ccc2c(c1)CN[C@H]2CNc1cnccc1C(=O)O    5.00 to 6.00
1  Cc1cc(OCC2CC2)ccc1-c1ccc2c(c1)CCN[C@H]2CNc1cnccc1C(=O)O          < 5.00
2  Cc1cc(OCC(F)(F)F)ccc1-c1ccc2c(c1)CCN[C@H]2CNc1cnccc1C(=O)O    5.00 to 6.00
3  CC(C)c1ccc(N(C)c2ccc3c(c2)CN[C@H]3CNc2cnccc2C(=O)O)cc1          < 5.00
4  CC(C)c1ccc(N(C)c2ccc3c(c2)CN[C@@H]3CNc2cnccc2C(=O)O)cc1    5.00 to 6.00
5  Cc1cc(OCC(F)(F)F)ccc1-c1ccc2c(c1)CCN[C@@H]2CNc1cnccc1C(=O)O    5.00 to 6.00
6  Cc1cc(OCC2CC2)ccc1-c1ccc2c(c1)CCN[C@@H]2CNc1cnccc1C(=O)O    5.00 to 6.00
7  CC(C)c1ccc(N(C)c2ccc3c(c2)CCN[C@H]3CNc2cnccc2C(=O)O)cc1    6.00 to 7.00
8  Cc1cc(OCC(F)(F)F)ccc1-c1ccc2c(c1)CN[C@@H]2CNc1cnccc1C(=O)O    6.00 to 7.00
